# assay-details: Human HepG2 cell viability assay in 384 well format
# Assay type: toxicity, cell-based
# Design: dose 125 nL, time 70.5 hour; concentration not given beside the values
# settings: HepG2 cells, read-out: Inhibition
measurement-name: cytotoxicity at 70.5 h
Please state the number and follow it with the unit.

Consider the following illustrative entries.
>>> df
                                   molecule        measurement_name  observed_result
0    CCCN1CCC(NC(=O)c2csc(C)c2-c2ccccc2)CC1  cytotoxicity at 70.5 h           -9.07%
1  N[C@H]1CN(S(=O)(=O)Cc2ccccc2)C[C@@H]1C1CC1  cytotoxicity at 70.5 h           -6.71%
2  O=C(c1ccc[nH]1)N1Cc2nccn2CC(Cn2ncccc2=O)C1 (configuration not stated)  cytotoxicity at 70.5 h           -6.79%

Any idea what cytotoxicity at 70.5 h was measured for Cc1nc2n(n1)CCN(S(=O)(=O)c1ccc(OC(F)(F)F)cc1)C2 ?
-1.32%

Any idea what cytotoxicity at 70.5 h was measured for Cc1cccc(-n2ncc(C(=O)N3CCn4c(C)nnc4C3)c2C)c1 ?
-10.4%

Any idea what cytotoxicity at 70.5 h was measured for Cn1nc2c(cc1=O)CN(CC(=O)NC1CCCCNC1=O)CC2 (configuration not stated) ?
12.7%

Any idea what cytotoxicity at 70.5 h was measured for CCN(Cc1ccncc1)Cc1c[nH]nc1-c1ccc(F)cc1 ?
-6.51%

Any idea what cytotoxicity at 70.5 h was measured for CCc1nnc2n1CCN(CCS(=O)(=O)c1ccccc1)C2 ?
-11.4%

Any idea what cytotoxicity at 70.5 h was measured for COCc1nnc(C(=O)N(C)Cc2ccc(OC)cc2)o1 ?
-0.9%

Each recorded value in this set is attributed to ChEMBL document CHEMBL3507680.
